- tgt: GST-human TopBP1 BRCT5 (641-746), wild type (human, UniProt Q92547 641-746)
- Sequence (Q92547 641-746): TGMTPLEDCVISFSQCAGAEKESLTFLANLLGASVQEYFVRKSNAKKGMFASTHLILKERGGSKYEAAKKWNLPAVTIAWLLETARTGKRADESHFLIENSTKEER
- experiment_notes: fluorescence polarisation
* marks the point of attachment. FITC = O=C1OC2(c3ccc(O)cc3Oc3cc(O)ccc32)c2ccc(NC(=S)*)cc21
recorded_metric: Kd (µM)

> print(dat)
                                     binder  reported.value
1  {FITC}-DTDFVPPSPEEII-NH2 [Unphosphorylated Ser304 BLM peptide (FITC-DTDFVPPSPEEII-NH2)]              60
